Where do the numbers come from? From the supplement of paper PMC9170038.

- Tested on: MS2 coat protein
- measurement-notes: apparent KD of MS2 coat protein; higher = weaker reporter binding
- test-context: Eterna round: R107; input ligand: tryptophan 2.4 mM
So basically, the class depends on measured apparent KD of MS2 coat protein, and the ranges are I = under 20 nM, II = from 20 nM up to 50 nM, III = 50 nM and over

Query string: Band of UUGCAUAUCUUGGAUACCAGCACAUGAGGAUCACCCAUGUCCGCGGGAUAGCUCCAGAUGUGCCCUUGGCAGCCACAUGCACUUG [Quinzama] ?
Result string: I

Query string: Band of AUGCAUAGCGGAAGGAGCGCAAUAGAAUGACAUGAGGAUCACCCAUGUGUGUGAUGUGGAUUGCAGGUAGGUCGCCGAGUGGUAU [Exclusion - Arginine B (Freestyle 3)] ?
Result string: II

Query string: Band of GCCAGACAUGAGGAUCACCCAUGUAGCGAUACCAGCUCUGUUGUGAGCCCUUGGCAGCGCACUGGCAUCGUAGGUGAUCCAAUAA [(T)''-(Ms2)-(Theo)-(T)'-(M)'_Design1] ?
Result string: II

Query string: Band of UGGUACAUGGCGGCCGCCACUGGGUUGAAAACCUGAGGAUCACCCUGGUAAAACGCGAAAGCGACUAGGACCGGGUCAUGUACCU ?
Result string: III

Query string: Band of CGCCGAGAGGGAAGGAGCGCGAUAACAUAACAUGAGGAUCACCCAUGUAAGAAAUUAAUCAUGCAGGUAGGUCGCCCAAGCGGCG [Same State Arginine B GF 3] ?
Result string: I

Query string: Band of CACGCGGUGUCGGCCGCCACUGACGCCCGUGGGUCUCCUGACAUGAGGAUCACCCAUGUACAGCGCAGGACCGGGACACCAACAA [Are] ?
Result string: II

Query string: Band of ACAUGAGGAUCACCCAUGUUCCUCAUUGAUACCAGUGAAUUUAGACGCCCUUGGCAGCGAGUUUUUGAAGAAGAAGUUUUUUUUU [6.D] ?
Result string: III

Query string: Band of AUAUAUGACAGAAGGAGCGCCAUGAACACACAUGAGGAUCACCCAUGUUUUUUUUGUGUUUGGCAGGUAGGUCGCUGACAUGAAA [Same State Arginine B 3] ?
Result string: I

Query string: Band of GAGGGUGAGCCUCUGGUCCGUUUGACGGAUACCAGCGAGAGGUCUCGCCCUUGGCAGCCGACGACAUGAGGAUCACCCAUGUUAA [#09 Exclusion-TheophyllineA] ?
Result string: I

* * *

- Tested on: MS2 coat protein
- measurement-notes: apparent KD of MS2 coat protein; designed switch direction (-1 OFF switch, 1 ON switch): -1; higher = weaker reporter binding
- test-context: input ligand: none
reported-endpoint: apparent KD of MS2 coat protein (nM)
Record the value in nM, omitting the unit from your answer.

Query string: Given the entry GCAGCAAAUUCCAUUAAAACCACAUGAGGAUCACCCAUGUCUCAGGAUAUGGUCUGGAUUACAGGCCAGAAGGGAGAAAGCUGC [Eli exng3 - 055] (Eterna round: R96, puzzle: Exclusion NG 3) , report its measured apparent KD of MS2 coat protein.
Result string: 16.3

Query string: Given the entry AUUUAAUUUAAUAAGAUCACAUGAGGAUCACCCAUGUUAUAAUAGGAUAUCAGCUCGAAUAGAGCUGAGAAGGAUUAUAACAUG [ExNG3/9-A4] (Eterna round: R96, puzzle: Exclusion NG 3) , report its measured apparent KD of MS2 coat protein.
Result string: 29

Query string: Given the entry UAUUGCAAGUGAGGAUAUGACAUGAGGAUCACCCAUGUAAAGGGAGUUGACUAUAUAGCAAGAUAUCAGAAGGCACAACUGUAU [JR_ExcNG2_Sub004] (Eterna round: R96, puzzle: Exclusion NG 2) , report its measured apparent KD of MS2 coat protein.
Result string: 131

Query string: Given the entry GGGUAACAUGAGGAUCACCCAUGUGAGGAUAUUCUAGGGAUGGAAGCUCGGCCGGCCAGGAGAAGGUACUAAAG [Janelle Amethyst 18 Mod 20 - Jieux - Exclusion 1] (Eterna round: R96, puzzle: Exclusion 1) , report its measured apparent KD of MS2 coat protein.
Result string: 48.2

Query string: Given the entry UGUUGUCGCGCAGGAUAUGAGGAUCACCCAUAUAGAGGAUAUGAAAAGAAGGCUCUGAGGAUUACCCAGAAGGGCGGGACAACU [pwkr exNG2 2xF5 2xFMN.21] (Eterna round: R96, puzzle: Exclusion NG 2) , report its measured apparent KD of MS2 coat protein.
Result string: 179

Query string: Given the entry AUUUUGUGAGGAUAUUAGAAGUAGAAAGUUGGUAGUAUUGCUGAGAAGGCACAUGAGGAUCACCCAUGUACAAC [JR_Ex4_Sub036] (Eterna round: R97, puzzle: Exclusion 4) , report its measured apparent KD of MS2 coat protein.
Result string: 16.7

Query string: Given the entry CCGCAGCAAGGAUAUACUUGCGGUGGUGAACGAGGGCUUAUACUUGAGGAUCACCCAAGUAGAAGGUGCAAAAC [Mamaed] (Eterna round: R97, puzzle: Exclusion 2) , report its measured apparent KD of MS2 coat protein.
Result string: 22.4

Query string: Given the entry UUCAUGUGAGGAUAUAGUACUUCUUCUAUUAUUAUUGAGUACUAGAAGGCACAUGAGGAUCACCCAUGUAGUAC [Ex4 - 3 - 43] (Eterna round: R96, puzzle: Exclusion 4) , report its measured apparent KD of MS2 coat protein.
Result string: 39.1

Query string: Given the entry GUGUUACAUGAGGAUCACCCAUGUGAGGAUAUGAGUCAGUCACGGUGACGUGGCUGACUCAGAAGGCACAAAGG [Mat - Exclusion 1 - JL Mod - D39] (Eterna round: R97, puzzle: Exclusion 1) , report its measured apparent KD of MS2 coat protein.
Result string: 93.9

Query string: Given the entry UACAUGAGGAUCACCCAUGUUUUGUCGUGUAUGGUAUUUAUCUAGGAUAUCAAUUGAUUUAUUCAUGAGAAGGAGAAUAUUAAU [JMF's solution 64] (Eterna round: R96, puzzle: Exclusion NG 3) , report its measured apparent KD of MS2 coat protein.
Result string: 39.8

Query string: Given the entry UUUUUACAUGAGGAUCACCCAUGUGAGGAUAUGGAGCGCGACCGCGCGGUCGCGUACACCAGAAGGCGCAGGAA [1st #75] (Eterna round: R97, puzzle: Exclusion 1) , report its measured apparent KD of MS2 coat protein.
Result string: 24.9

Query string: Given the entry GGAUAAAAGGCAGGAUAUACGUAUCACUAACGAGUAGAAGGGCCACAUGAGGAUCACCCAUGUGAGUUCUCAAUAAGAAACACG [Prohibition 63 - Jieux - Exclusion NG 1] (Eterna round: R96, puzzle: Exclusion NG 1) , report its measured apparent KD of MS2 coat protein.
Result string: 14.2

Query string: Given the entry ACAUGAGGAUCACCCAUGUCCGGCUGGUCCGUCUCGGCUGUCGAGGAUAUAGCUCGGUGUCCGCGCUAGAAGGCGGGAGCUGGC [Aenatbe mod 67] (Eterna round: R96, puzzle: Exclusion NG 3) , report its measured apparent KD of MS2 coat protein.
Result string: 85.1

Query string: Given the entry UGAGGACAUGAGGAUCACCCAUGUAAGGAUAUGCGGAGAGUUUGGAGAGGUUGAGGAGGCAGAAGGUACGGGAU [JR_Exclu1_Sub046] (Eterna round: R96, puzzle: Exclusion 1) , report its measured apparent KD of MS2 coat protein.
Result string: 103

Query string: Given the entry CCGUACGGAGGAUAUACAUGAGGAUCACCCAUGUGUCCGCGCGUGGGAACACGUAAUAGUAGAAGGCCGUCCGG [jl-ex3-4.78 Brourd automod] (Eterna round: R97, puzzle: Exclusion 3) , report its measured apparent KD of MS2 coat protein.
Result string: 59.4

Query string: Given the entry AUGUAGGAAGGAUAUGCGUCGGCAUGAAAUCCUUGUUGGCCACAUGAGGAUCACCCAUGUAGAAGGUUCACGUA [Eternabot (L2) Solution 10] (Eterna round: R97, puzzle: Exclusion 2) , report its measured apparent KD of MS2 coat protein.
Result string: 52.7

Query string: Given the entry UACAUGAGGAUCACCCAUGUUUUGUCGUGUAUGGUAUUUAUCUAGGAUAUCAAUUUAUUAAUUUAUGAGAAGGAGAAUAUUAAU [JMF's solution 20] (Eterna round: R96, puzzle: Exclusion NG 3) , report its measured apparent KD of MS2 coat protein.
Result string: 43.3

Query string: Given the entry UUGUGCACGCUGCGAUCCUACAUGAGGAUCACCCAUGUGGUCUGGUGGCGUGGGUCACCGGACUUGGCUCGUCUUGC [salish99_S_TOV1_R5_073] (Eterna round: R97, puzzle: Sensor, turn-off variant 1) , report its measured apparent KD of MS2 coat protein.
Result string: 28.6
